tested on: NCI-H524 (ATCC) human lung cancer cells; type: cell-based; conditions: treated 2 hours, further incubated 70 hours

Compound	Result Unit	IC50
COc1cc2cc(c1Cl)N(C)C(=O)C[C@H](OC(=O)[C@H](C)N(C)C(=O)CCSSCCC(=O)NCCOCCOCCOCCOCCOCCOCCOCCOCCC(=O)N[C@H](Cc1ccccc1)C(=O)N[C@H]1CSSC[C@@H](C(=O)N[C@H](CO)[C@@H](C)O)NC(=O)[C@H]([C@@H](C)O)NC(=O)[C@H](CCCCN)NC(=O)[C@@H](Cc3c[nH]c4ccccc34)NC(=O)[C@H](Cc3ccccc3)NC1=O)[C@]1(C)O[C@H]1[C@H](C)[C@@H]1C[C@@](O)(NC(=O)O1)[C@H](OC)/C=C/C=C(\C)C2 [Conjugate 6]	nM	234

====

tested on: NCI-H524 (ATCC) human lung cancer cells; type: cell-based; conditions: treated 2 hours, further incubated 70 hours
pIC50: −log10 of the molar value.

Compound	Relation Qualifier	pIC50
CCCCN(CCSSCCC(=O)N[C@H](Cc1ccccc1)C(=O)N[C@H]1CSSC[C@@H](C(=O)N[C@H](CO)[C@@H](C)O)NC(=O)[C@H]([C@@H](C)O)NC(=O)[C@H](CCCCN)NC(=O)[C@@H](Cc2c[nH]c3ccccc23)NC(=O)[C@H](Cc2ccccc2)NC1=O)C(=O)O[C@@H](C(=O)O[C@H]1C[C@@]2(O)[C@@H](OC(=O)c3ccccc3)[C@@H]3[C@]4(OC(C)=O)CO[C@@H]4C[C@H](OC)[C@@]3(C)C(=O)[C@H](OC)C(=C1C)C2(C)C)[C@@H](NC(=O)OC(C)(C)C)c1ccccc1 [Conjugate 3]	<	4.70
COc1cc2cc(c1Cl)N(C)C(=O)C[C@H](OC(=O)[C@H](C)N(C)C(=O)CCSSCCC(=O)N[C@H](Cc1ccccc1)C(=O)N[C@H]1CSSC[C@@H](C(=O)N[C@H](CO)[C@@H](C)O)NC(=O)[C@H]([C@@H](C)O)NC(=O)[C@H](CCCCN)NC(=O)[C@@H](Cc3c[nH]c4ccccc34)NC(=O)[C@H](Cc3ccccc3)NC1=O)[C@]1(C)O[C@H]1[C@H](C)[C@@H]1C[C@@](O)(NC(=O)O1)[C@H](OC)/C=C/C=C(\C)C2 [Conjugate 4]	=	6.64
CO[C@H]1C(=O)[C@]2(C)[C@@H](OC)C[C@H]3OC[C@@]3(OC(C)=O)[C@H]2[C@H](OC(=O)c2ccccc2)[C@]2(O)C[C@H](OC(=O)[C@H](OC(=O)OCCSSCCC(=O)N[C@H](Cc3ccccc3)C(=O)N[C@H]3CSSC[C@@H](C(=O)N[C@H](CO)[C@@H](C)O)NC(=O)[C@H]([C@@H](C)O)NC(=O)[C@H](CCCCN)NC(=O)[C@@H](Cc4c[nH]c5ccccc45)NC(=O)[C@H](Cc4ccccc4)NC3=O)[C@@H](NC(=O)OC(C)(C)C)c3ccccc3)C(C)=C1C2(C)C [Conjugate 1]	=	6.96

Where these numbers come from: patent US20170151339A1
